Exercise: state measured kon for each of the binders provided.
# target.desc: T1, TIGIT (UniProt Q495A1 22-141, limits assumed)
# T1 construct: also called T cell immunoreceptor with Ig and ITIM domains; hTIGIT
# T1 sequence (looked up): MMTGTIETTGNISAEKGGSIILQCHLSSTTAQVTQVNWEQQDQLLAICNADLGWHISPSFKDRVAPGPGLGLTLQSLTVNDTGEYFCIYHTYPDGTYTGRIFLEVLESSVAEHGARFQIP
# assay.name: SPR, VHH-V5-His
Answers are plain numbers, in M⁻¹ s⁻¹.

These solved cases illustrate the format of a correct answer.
{"columns": ["binder", "kon (M⁻¹ s⁻¹)"],
 "data": [
  ["TIGIT-31-06 (VHH-V5-His) (VHH, also called TIGIT-31-6; 31-6; not shown: V5-His tag) VHH: EVQLVESGGGLVQPGGSLRLSCAASGFTFSTSWMGWFRQAPGKERELVASITSGGSTYYADSVKGRFTISADNSKNTAYLQMNSLKPEDTAVYYCAADVWYGSTWRNWGQGTLVTVSS", 20000],
  ["TIGIT-31-56 (VHH-V5-His) (VHH, not shown: V5-His tag) VHH: EVQLVESGGGLVQPGGSLRLSCAASGRIFRRNSMGWFRQAPGKEREFVAVITRSGGGEVTTYADSVKGRFTINADNSKNTAYLQMNSLKPEDTAVYYCAMSSVTRGSSDWGQGTLVTVST", 30000],
  ["TIGIT-31-35 (VHH-V5-His) (VHH, not shown: V5-His tag) VHH: EVQLVESGGGLVQPGGSLRLSCAASGFTFSTSWMGWFRQAPGKERELVASITSGGTTNYADSVKGRFTISADNSKNTAYLQMNSLKPEDTAVYYCAADVWYGSTWRNWGQGTLVTVSS", 30000]
]}

Could you now consider this next binder?
Look at this binder and give its reported kon. TIGIT-30-58 (VHH-V5-His) (VHH, not shown: V5-His tag) VHH: EVQLVESGGGLVQAGGSLRLSCAASGFAFGDSWMGWFRQAPGKEREWVSGISSGGGRTYYADSVKGRFTISADNAKNTVYLQMNSLKPEDTAVYYCAADVWYGSTWRNWGQGTQVTVSS
10000
